Examples of compounds with documented pIC50 follow.
tested on: Aβ-40; assay: MSD Human (6E10) Ab 3-PLEX elisa, conditioned media of 2B7 cells: Aβ-40; assay type: cell-based; settings: Homo sapiens, Aβ-40 (superscript b); read-out: 50% reduction value
pIC50: −log10 of the molar value.
attribute measured: pIC50

CC(C)[C@@H](OC(N)=O)C1C[C@@H](C)[C@H]2C(O1)[C@H](O)[C@@]1(C)[C@@H]3CC[C@H]4C(C)(C)C(O[C@H]5CNCCO5)CC[C@@]45C[C@@]35CC[C@]21C (stereo partly shown) | 5.00 to 6.00
CCO[C@@H](C1C[C@@H](C)[C@H]2C(O1)[C@H](O)[C@@]1(C)C3CC[C@H]4C(C)(C)C(O[C@H]5CN(CCCC(=O)O)CCO5)CC[C@@]45C[C@@]35CC[C@]21C)C(C)(C)O (stereo partly shown) | 5.00 to 6.00
CNC(=O)OC(C)(C)[C@@H](O)[C@H]1C[C@@H](C)[C@H]2[C@H](O1)[C@H](O)[C@@]1(C)C3CC[C@H]4C(C)(C)[C@@H](O)CC[C@@]45C[C@@]35CC[C@]21C (stereo partly shown) | < 5.00
CCO[C@@H]([C@H]1C[C@@H](C)[C@H]2[C@H](O1)[C@H](O)[C@@]1(C)[C@@H]3CC[C@H]4C(C)(C)[C@@H](OC(=O)NC5CN(C)C5)CC[C@@]45C[C@@]35CC[C@]21C)C(C)(C)O | > 6.00
C=C(C)CO[C@@H](C1C[C@@H](C)[C@H]2C(O1)[C@H](O)[C@@]1(C)C3CC[C@H]4C(C)(C)C(OC(=O)NC5CNC5)CC[C@@]45C[C@@]35CC[C@]21C)C(C)(C)O (stereo partly shown) | 5.00 to 6.00
CC(=O)OC(C)(C)C1C[C@@H](C)[C@H]2C(O1)[C@H](O)[C@@]1(C)C3CC[C@H]4C(C)(C)[C@@H](O)CC[C@@]45C[C@@]35CC[C@]21C (stereo partly shown) | < 5.00
CC(C)CO[C@@H](C1C[C@@H](C)[C@H]2C(O1)[C@H](O)[C@@]1(C)C3CC[C@H]4C(C)(C)C(OC(=O)NC5CN(C=O)C5)CC[C@@]45C[C@@]35CC[C@]21C)C(C)(C)O (stereo partly shown) | 5.00 to 6.00
C[C@@H]1CC(C(O)C(C)(C)C)OC2[C@H]1[C@@]1(C)CC[C@@]34C[C@@]35CC[C@H](O)C(C)(C)[C@@H]5CCC4[C@]1(C)[C@H]2O (stereo partly shown) | < 5.00
CCO[C@@H]([C@H]1C[C@@H](C)[C@H]2[C@H](O1)[C@H](O)[C@@]1(C)[C@@H]3CC[C@H]4C(C)(C)[C@@H](OC5CN(C)CCO5)CC[C@@]45C[C@@]35CC[C@]21C)C(C)(C)O (stereo partly shown) | 5.00 to 6.00
CCO[C@@H]([C@H]1C[C@@H](C)[C@H]2[C@H](O1)[C@H](O)[C@@]1(C)C3CC[C@H]4C(C)(C)C(OC(=O)NC5COC5)CC[C@@]45C[C@@]35CC[C@]21C)C(C)(C)O (stereo partly shown) | 5.00 to 6.00

====

system: Aβ-38; assay: MSD Human (6E10) Ab 3-PLEX elisa, conditioned media of 2B7 cells: Aβ-38; format: cell-based; conditions: Homo sapiens; Aβ-38 (superscript a); read-out: 50% reduction value
pIC50: −log10 of the molar value.
Examples of compounds with documented pIC50 follow.
attribute measured: pIC50

CCO[C@H](C(C)C)C1C[C@@H](C)[C@H]2C(O1)[C@H](O)[C@@]1(C)[C@@H]3CC[C@H]4C(C)(C)C(O[C@H]5CNCCO5)CC[C@@]45C[C@@]35CC[C@]21C (stereo partly shown) | 5.00 to 6.00
COC(=O)N(C)CC1C[C@@H](C)[C@H]2C(O1)[C@H](O)[C@@]1(C)C3CC[C@H]4C(C)(C)[C@@H](O)CC[C@@]45C[C@@]35CC[C@]21C (stereo partly shown) | 5.00 to 6.00
CCNC(=O)O[C@H](C(C)C)C1C[C@@H](C)[C@H]2C(O1)[C@H](O)[C@@]1(C)C3CC[C@H]4C(C)(C)C(OC(=O)N5CCOCC5)CC[C@@]45C[C@@]35CC[C@]21C (stereo partly shown) | > 6.00
C[C@@H]1CC(COC(=O)C(C)(C)C)OC2[C@H]1[C@@]1(C)CC[C@@]34C[C@@]35CC[C@H](O[C@H]3CN(C6COC6)CCO3)C(C)(C)[C@@H]5CCC4[C@]1(C)[C@H]2O (stereo partly shown) | 5.00 to 6.00
CCO[C@@H](C1C[C@@H](C)[C@H]2C(O1)[C@H](O)[C@@]1(C)C3CC[C@H]4C(C)(C)C(O[C@H]5CN(C6CCOCC6)CCO5)CC[C@@]45C[C@@]35CC[C@]21C)C(C)(C)O (stereo partly shown) | > 6.00
CC[S+]([O-])[C@@H](C1C[C@@H](C)[C@H]2C(O1)[C@H](O)[C@@]1(C)C3CC[C@H]4C(C)(C)C(O[C@H]5CN(C6COC6)CCO5)CC[C@@]45C[C@@]35CC[C@]21C)C(C)(C)O (stereo partly shown) | 5.00 to 6.00
CCO[C@@H]([C@H]1C[C@@H](C)[C@H]2[C@H](O1)[C@H](O)[C@@]1(C)C3CC[C@H]4C(C)(C)C(OC(=O)NC5CNC5)CC[C@@]45C[C@@]35CC[C@]21C)C(C)(C)O (stereo partly shown) | > 6.00
CCO[C@@H](C1C[C@@H](C)[C@H]2C(O1)[C@H](O)[C@@]1(C)C3CC[C@H]4C(C)(C)C(O[C@H]5CN(C6CCOC6)CCO5)CC[C@@]45C[C@@]35CC[C@]21C)C(C)(C)O (stereo partly shown) | > 6.00
CCO[C@@H]([C@H]1C[C@@H](C)[C@H]2[C@H](O1)[C@H](O)[C@@]1(C)[C@@H]3CC[C@H]4C(C)(C)[C@@H](OC(=O)N5CC(C(=O)O)C5)CC[C@@]45C[C@@]35CC[C@]21C)C(C)(C)O | > 6.00
CO[C@H](C(C)C)C1C[C@@H](C)[C@H]2C(O1)[C@H](O)[C@@]1(C)C3CC[C@H]4C(C)(C)[C@@H](O[C@H]5CNCCO5)CC[C@@]45C[C@@]35CC[C@]21C (stereo partly shown) | 5.00 to 6.00

====

system: Aβ-40; test: MSD Human (6E10) Ab 3-PLEX elisa, conditioned media of 2B7 cells: Aβ-40; assay type: cell-based; settings: Homo sapiens, Aβ-40 (superscript b); read-out: 50% reduction value
pIC50: −log10 of the molar value.
pIC50 values for the molecules below.
attribute measured: pIC50

CC(C)[C@@H](OC(=O)N1CCC1)C1C[C@@H](C)[C@H]2C(O1)[C@H](O)[C@@]1(C)C3CC[C@H]4C(C)(C)C(OC(=O)NC5CNC5)CC[C@@]45C[C@@]35CC[C@]21C (stereo partly shown) | 5.00 to 6.00
CS[C@@H](C1C[C@@H](C)[C@H]2C(O1)[C@H](O)[C@@]1(C)C3CC[C@H]4C(C)(C)C(O)CC[C@@]45C[C@@]35CC[C@]21C)C(C)(C)O (stereo partly shown) | < 5.00
CC(C)[C@@H](OC(=O)N(C)C)C1C[C@@H](C)[C@H]2C(O1)[C@H](O)[C@@]1(C)C3CC[C@H]4C(C)(C)[C@@H](O)CC[C@@]45C[C@@]35CC[C@]21C (stereo partly shown) | 5.00 to 6.00
CCO[C@@H]([C@H]1C[C@@H](C)[C@H]2[C@H](O1)[C@H](O)[C@@]1(C)C3CC[C@H]4C(C)(C)C(OC(=O)NC5CNC5)CC[C@@]45C[C@@]35CC[C@]21C)C(C)(C)O (stereo partly shown) | 5.00 to 6.00
CO[C@@H]([C@H]1C[C@@H](C)[C@H]2[C@H](O1)[C@H](O)[C@@]1(C)C3CC[C@H]4C(C)(C)[C@@H](O[C@H]5CN(C6COC6)CCO5)CC[C@@]45C[C@@]35CC[C@]21C)C(C)(C)O (stereo partly shown) | 5.00 to 6.00
CC(C)[C@@H](OC(=O)N1CCC1)C1C[C@@H](C)[C@H]2C(O1)[C@H](O)[C@@]1(C)C3CC[C@H]4C(C)(C)C(OC(=O)N5CC(C(=O)O)C5)CC[C@@]45C[C@@]35CC[C@]21C (stereo partly shown) | 5.00 to 6.00
CO[C@@H](C1C[C@@H](C)[C@H]2C(O1)[C@H](O)[C@@]1(C)C3CC[C@H]4C(C)(C)C(OC(=O)NC5CN(C)C5)CC[C@@]45C[C@@]35CC[C@]21C)C(C)(C)O (stereo partly shown) | 5.00 to 6.00
CC(C)[C@@H](OC(=O)N1CCC1)C1C[C@@H](C)[C@H]2C(O1)[C@H](O)[C@@]1(C)C3CC[C@H]4C(C)(C)C(OC(=O)N5CCn6ccnc6C5)CC[C@@]45C[C@@]35CC[C@]21C (stereo partly shown) | < 5.00
CC(=O)OC[C@@]1(C)C[C@@H](C)[C@H]2C(O1)[C@H](O)[C@@]1(C)C3CC[C@H]4C(C)(C)C(O)CC[C@@]45C[C@@]35CC[C@]21C (stereo partly shown) | 5.00 to 6.00
CC(C)C(=O)N1CCO[C@@H](O[C@H]2CC[C@]34C[C@]35CC[C@]3(C)[C@@H]6C(OC([C@H](O)C(C)C)C[C@H]6C)[C@H](O)[C@@]3(C)C5CC[C@H]4C2(C)C)C1 (stereo partly shown) | < 5.00
C[C@@H]1CC(COC(=O)C2CC2)OC2[C@H]1[C@@]1(C)CC[C@@]34C[C@@]35CC[C@H](O[C@H]3CN(C6COC6)CCO3)C(C)(C)[C@@H]5CCC4[C@]1(C)[C@H]2O (stereo partly shown) | < 5.00
CC(=O)O[C@@H]([C@H]1C[C@@H](C)C2C(O1)C(=O)[C@@]1(C)[C@@H]3CC[C@H]4C(C)(C)[C@@H](O[C@@H]5OC[C@@H](O)[C@H](O)[C@H]5O)CC[C@@]45C[C@@]35CC[C@]21C)C(C)(C)O (stereo partly shown) [drawing 1230] | 5.00 to 6.00
CCOC(=O)CO[C@@H]([C@H]1C[C@@H](C)[C@H]2[C@H](O1)[C@H](O)[C@@]1(C)C3CC[C@H]4C(C)(C)[C@@H](O[C@H]5CN(C6COC6)CCO5)CC[C@@]45C[C@@]35CC[C@]21C)C(C)(C)O (stereo partly shown) | < 5.00
C[C@@H]1CC(C(O)C(C)(C)C)OC2[C@H]1[C@@]1(C)CC[C@@]34C[C@@]35CC[C@H](O[C@H]3CN(C6COC6)CCO3)C(C)(C)[C@@H]5CCC4[C@]1(C)[C@H]2O (stereo partly shown) | > 6.00
CC(C)[C@@H](OC(=O)N1CCC1)C1C[C@@H](C)[C@H]2C(O1)[C@H](O)[C@@]1(C)C3CC[C@H]4C(C)(C)C(OC(=O)NC5COC5)CC[C@@]45C[C@@]35CC[C@]21C (stereo partly shown) | < 5.00
C[C@@H]1C[C@H]([C@H](OC(N)=O)C(C)(C)O)O[C@H]2[C@H]1[C@@]1(C)CC[C@@]34C[C@@]35CC[C@H](O[C@H]3CN(C6COC6)CCO3)C(C)(C)[C@@H]5CCC4[C@]1(C)[C@H]2O (stereo partly shown) | < 5.00
C=C(C)CO[C@@H](C1C[C@@H](C)[C@H]2C(O1)[C@H](O)[C@@]1(C)C3CC[C@H]4C(C)(C)C(O[C@H]5CN(C6COC6)CCO5)CC[C@@]45C[C@@]35CC[C@]21C)C(C)(C)O (stereo partly shown) | 5.00 to 6.00
CO[C@@H]([C@H]1C[C@@H](C)[C@H]2[C@H](O1)[C@H](O)[C@@]1(C)[C@@H]3CC[C@H]4C(C)(C)[C@@H](OC5CN(C(=O)C(C)C)CCO5)CC[C@@]45C[C@@]35CC[C@]21C)C(C)(C)O (stereo partly shown) | 5.00 to 6.00
CC(C)O[C@@H](C1C[C@@H](C)[C@H]2C(O1)[C@H](O)[C@@]1(C)C3CC[C@H]4C(C)(C)C(O[C@H]5CN(C6COC6)CCO5)CC[C@@]45C[C@@]35CC[C@]21C)C(C)(C)O (stereo partly shown) | 5.00 to 6.00

Where do these numbers come from? They come from patent US20110251379A1.
